inhibition at 1 µM for assorted molecules
Experimental system: HIV-1 RT (Human immunodeficiency virus type 1 group M subtype B)
Construct: Reverse transcriptase enzyme from the LAV strain of Human Immunodeficiency Virus (HIV-1) (1) was isolated; made in house; host or cells: E. coli JM109, clone pBRTprtl+ in vector pIBI21 (lac promoter, IPTG induction)
Run description: Reverse Transcriptase (RT) Assay: inhibition of RNA-dependent DNA polymerase activity
Format: biochemical
Protocol conditions: @ 1µM (footnote *); read-out: RT Assay % inhibition
Property name: inhibition at 1 µM (%)

Molecule	Property name	Reported measurement
CCNc1ccc2c(n1)N(CC)c1ncccc1C(=O)N2C	inhibition at 1 µM	75
O=C1Nc2c(CO)ccnc2N(C2CC2)c2ncccc21	inhibition at 1 µM	34
CCN1c2ncccc2NC(=O)c2c(C)cc(C)nc21	inhibition at 1 µM	2
CCN1c2ncccc2C(=O)Nc2c(C)cc(Cl)nc21	inhibition at 1 µM	91
CCN1c2ncc(N)cc2C(=O)N(C)c2cccnc21 [Example 65, hemihydrate]	inhibition at 1 µM	82
O=C1Nc2cccnc2N(C2CCCC2)c2ncccc21	inhibition at 1 µM	35
Cc1cc(Cl)nc2c1NC(=O)c1cccnc1N2C1CC1	inhibition at 1 µM	90
Cc1ccnc2c1NC(=O)c1c(O)ccnc1N2C1CC1	inhibition at 1 µM	32
Cc1ccnc2c1N(O)C(=O)c1cccnc1N2C1CC1	inhibition at 1 µM	36
CCN1c2ncc([N+](=O)[O-])cc2C(=O)N(C)c2cccnc21	inhibition at 1 µM	0
